Data provenance is ChEMBL document CHEMBL5058577.

Tested on: HEK-293T
measurement_notes: Multiplex assay against HEK293T
Format: toxicity, cell-based
conditions: human, 48 h, 10 µM, compound concentration 10 uM, replicate 1
Assign labels as follows, please: Condition met for Population Apoptotic (%) below 30%; Condition not met for Population Apoptotic (%) equal to or exceeding 30%.

molecule: Cc1cc(-c2ccc3c(c2)CC[C@H]3N2CC3(CCN(C(=O)Cc4cn5cc(C)sc5n4)CC3)C2)ncn1
assigned_category: Condition met
--
molecule: CN(C)C/C=C/C(=O)Nc1ccc(C(=O)N2CCCC(Nc3ncc(Cl)c(-c4c[nH]c5ccccc45)n3)C2)cc1 (stereo not given)
assigned_category: Condition not met
--
molecule: C[C@@H]1CC(=O)Nc2cccc(-c3ccc4c(c3)c(-c3cnn(C)c3)nn4C)c2N1
assigned_category: Condition not met
--
molecule: Cc1sc2c(c1C)C(c1ccc(Cl)cc1)=N[C@H](CC(=O)OC(C)(C)C)c1nnc(C)n1-2
assigned_category: Condition not met
--
molecule: OCCCNc1cc(-c2ccnc(Nc3cccc(Cl)c3)n2)ccn1
assigned_category: Condition not met

###

Test system: Fibroblast
measurement_notes: Multiplex assay against human fibroblast
Type: toxicity, cell-based
conditions: 24 h, 10 µM, compound concentration 10 uM, replicate 1
endpoint: Population Hoechst High Intensity Objects (%)

smiles_input: S=C(NCCCc1c[nH]cn1)NCCCN(Cc1ccc(Cl)c(Cl)c1)c1ccc(Br)cn1
endpoint_result: 1
--
smiles_input: COc1cc2nc(N3CCN(C(=O)COc4c(OC)cccc4C(C)C)CC3)nc(N)c2cc1OC.Cl.Cl
endpoint_result: 39
--
smiles_input: O=C(Nc1cc(-c2ccccc2)nn1-c1ccccc1F)c1ccc([N+](=O)[O-])cc1
endpoint_result: 4

###

System: HEK-293T
measurement_notes: Multiplex assay against HEK293T
Type: toxicity, cell-based
conditions: human, 48 h, 10 µM, compound concentration 10 uM, replicate 2
Non-standard residues stand in square brackets, D forms with d. Residues, ends and D or L forms follow the SMILES beside them.
Reported Population Tubulin-Different-Phenotype (%) values are given for each entry in this list.
endpoint: Population Tubulin-Different-Phenotype (%)

molecule: CCCCCCNC(=O)Nc1ccc(S(=O)(=O)Nc2ccc(CCNC[C@H](O)COc3ccc(O)cc3)cc2)cc1
endpoint_result: 39%
--
molecule: CC(C)C[C@@H]1NC(=O)[C@@H](C(C)C)NC(=O)[C@@H]2CCCN2C(=O)[C@@H](CC(=O)O)NC(=O)[C@@H](Cc2c[nH]c3ccccc23)NC1=O [BQ-123] (cyclo(L[dW][dD]P[dV]))
endpoint_result: 16%
--
molecule: CN1C[C@H](C(=O)N[C@]2(C)O[C@@]3(O)[C@@H]4CCCN4C(=O)[C@H](Cc4ccccc4)N3C2=O)C[C@@H]2c3cccc4[nH]cc(c34)C[C@H]21.CS(=O)(=O)O [DIHYDROERGOTAMINE MESYLATE]
endpoint_result: 11%

###

Test system: Fibroblast
measurement_notes: Multiplex assay against human fibroblast
Format: toxicity, cell-based
conditions: 48 h, 1 µM, compound concentration 1 uM, replicate 1
Doc: threshold 10% (exclusive). Items with Population Pyknosed Nuclei (%) beneath it return Y; others return N.

molecule: C[C@@H]1CC(=O)Nc2cccc(-c3ccc4c(c3)c(-c3cnn(C)c3)nn4C)c2N1
assigned_category: N
--
molecule: CCn1c(-c2nc3cc(C(=O)N4CCCC(N)C4)ccc3n2C)cc2ccccc21.Cl (stereo not given)
assigned_category: Y
--
molecule: C[C@H](NC(=O)CNC(=O)c1cccc(Cl)c1)c1ccccc1
assigned_category: N
--
molecule: CN1CCN(c2ccc(Nc3c4ccccc4nc4ccccc34)cc2)CC1.Cl.Cl.O
assigned_category: Y
--
molecule: COc1ccc2c(c1OCc1ccccc1)C[C@@H](C(=O)O)N(C(=O)C(c1ccccc1)c1ccccc1)C2
assigned_category: N
--
molecule: O=C(NCCNCC(O)COc1ccc(O)cc1)N1CCOCC1.O=C(NCCNCC(O)COc1ccc(O)cc1)N1CCOCC1.O=C(O)/C=C/C(=O)O (stereo not given) [XAMOTEROL FUMARATE]
assigned_category: N
--
molecule: CCCCCCNC(=O)Nc1ccc(S(=O)(=O)Nc2ccc(CCNC[C@H](O)COc3ccc(O)cc3)cc2)cc1
assigned_category: Y
--
molecule: CSc1nc(NC2CCCC2)c([N+](=O)[O-])c(NC2CCCC2)n1
assigned_category: Y
--
molecule: CC(C)(O)C(=O)N1CCN(c2ccc(C(F)(F)F)c(C3=C(c4c[nH]c5ccccc45)C(=O)NC3=O)c2)CC1
assigned_category: N
--
molecule: CC(C)C[C@H](CO)Nc1nc(S[C@@H](C)c2ccccc2)nc2nc(N)sc12
assigned_category: N
